Where do the numbers come from? From paper PMC9402538.

# TARGET UNDER TEST: T1, APC (303-739) (UniProt P25054 303-739)
# T1 construct: adenomatous polyposis coli (APC), residues 303-739; pET28a construct; also called APC WT; adenomatous polyposis coli; source: E. coli BL21 (DE3), purified (Ni-NTA)
# T1 sequence (looked up): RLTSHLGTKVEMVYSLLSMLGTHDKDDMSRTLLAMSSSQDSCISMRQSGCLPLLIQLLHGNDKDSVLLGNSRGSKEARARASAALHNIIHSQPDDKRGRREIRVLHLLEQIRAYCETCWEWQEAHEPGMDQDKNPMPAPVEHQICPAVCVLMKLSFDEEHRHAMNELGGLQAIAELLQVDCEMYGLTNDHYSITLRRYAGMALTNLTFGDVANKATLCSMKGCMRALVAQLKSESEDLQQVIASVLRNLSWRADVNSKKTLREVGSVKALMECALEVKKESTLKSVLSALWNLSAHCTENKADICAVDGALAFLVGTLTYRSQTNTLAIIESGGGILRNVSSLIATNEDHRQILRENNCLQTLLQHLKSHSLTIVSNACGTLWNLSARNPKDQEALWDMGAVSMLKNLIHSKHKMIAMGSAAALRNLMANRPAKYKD
# TEST PROTOCOL: fluorescence polarisation; competition with tracer 1: APC (303-739) 1.0 μM and tracer 1 20 nM (Table 2), serial dilution of peptide
# APPLIED CONDITIONS: both partners purified
[ ]: non-standard residue; d: D form. The star is where a group is joined. Bpa = N[C@@H](Cc1ccc(C(=O)c2ccccc2)cc1)C(=O)O; Bz = O=C(c1ccccc1)*
Cut-off 700 nM on IC50: below means Met, at or above means Not met.

Does the reported IC50 of the following binder sit strictly below 700 nM? Bz-AGESLYE-NH2 [MAI-467] Not met

Can you check {pyrimidine‑4‑carbonyl}-AGESLYE-NH2 [MAI-464] next? Not met

Can you check {oxazole‑2‑carbonyl}-AGESLYE-NH2 [MAI-455] next? Met

Can you check Bz-AGESLY[Bpa]-NH2 (SMILES CC(C)C[C@H](NC(=O)[C@H](CO)NC(=O)[C@H](CCC(=O)O)NC(=O)CNC(=O)[C@H](C)NC(=O)c1ccccc1)C(=O)N[C@@H](Cc1ccc(O)cc1)C(=O)N[C@@H](Cc1ccc(C(=O)c2ccccc2)cc1)C(N)=O) [MAI-457] next? Met

Can you check {2‑(methylthio)pyrimidine‑4‑carbonyl}-AGESLYE-NH2 [MAI-456] next? Met
